Data provenance is BindingDB's records for doi:10.7270/Q2Z31X54.

target: Endoribonuclease toxin MazF (Escherichia coli (strain K12), UniProt P0AE70); experiment: activation of MazEF endoribonuclease cleavage – biochemical, fluorescence, single-stranded RNA substrate, uHTS hits, dose response (AID 588481)
Sequence (P0AE70 whole entry): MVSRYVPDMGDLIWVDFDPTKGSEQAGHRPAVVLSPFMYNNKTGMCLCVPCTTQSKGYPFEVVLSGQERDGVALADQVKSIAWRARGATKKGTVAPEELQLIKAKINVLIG
parameter: EC50

Example results:
>>> experimental_value("COc1ccc(CN=Nc2ccc([N+](=O)[O-])cc2S(=O)(=O)N2CCN(C)CC2)cc1")
"> 99 µM"
>>> experimental_value("O=C1C(=O)N(c2nccs2)C(c2ccccc2)C1C(=O)c1cc2ccccc2o1 (stereo not drawn)")
"> 99 µM"

Continue with the next molecule.
With Endoribonuclease toxin MazF (Escherichia coli (strain K12), UniProt P0AE70) as the test system, CCSc1nnc(N2C(=O)C(=O)C(C(=O)c3ccco3)C2c2cccc(OC)c2)s1 (stereo not drawn) showed EC50 of > 99 µM
